- Tested on: AMPA receptors
- measurement-description: AMPA ES Cell FLIPR Screen, G7330B (EC50 and % effect)
- Format: cell-based, murine
- recorded-conditions: individual determinations; ES cell-derived neurons, 32 uM AMPA challenge; read-out: G7330B (U): EC50
- Protocol: The murine ES cell line used was E14-Sx1-16C, which has a targeted mutation in the Sox1 gene, a neuroectodermal marker, that offers G418 resistance when the Sox1 gene is expressed (Stem Cell Sciences). ES cells were maintained undifferentiated as previously described (Roach). […] ES cells were plated on gelatin-coated dishes (BD Biosciences), the media was changed daily and the cells were dissociated with 0.05% Trypsin EDTA (Invitrogen) every other day. […]
pEC50: −log10 of the molar value.
measured-parameter: pEC50

Example entries and their recorded answers appear below.
{"columns": ["molecule", "pEC50"],
 "data": [
  ["CNC(=O)c1ccc(-c2ccc([C@@H]3CCOC[C@H]3NS(=O)(=O)C(C)C)cc2)cc1 (relative stereo)", "< 5.00"],
  ["CS(=O)(=O)N[C@@H]1CNCC[C@H]1c1ccc(-c2ccccc2)cc1 (relative stereo)", "< 4.49"],
  ["CC(C)S(=O)(=O)NC1CCN(S(C)(=O)=O)CC1c1ccc(-c2ccccc2)cc1 (centres unmarked)", "< 4.49"]
]}

Switching to the query record.
-- ask State pEC50 on AMPA receptors. Entry: CC(C)S(=O)(=O)NC1CCN(C)CC1c1ccc(-c2ccccc2)cc1 (centres unmarked)
-- reply < 4.49
